From: paper PMC11206297

molecular target: NAMPT (Homo sapiens, UniProt P43490); experiment: NAMPT enzymatic inhibition assay (fluorescence, coupled NMNAT/alcohol dehydrogenase); assay type: biochemical; conditions: 0.1 μM; duplicate, average; read-out: NAMPT Inhibition Rate
Sequence (P43490 whole entry): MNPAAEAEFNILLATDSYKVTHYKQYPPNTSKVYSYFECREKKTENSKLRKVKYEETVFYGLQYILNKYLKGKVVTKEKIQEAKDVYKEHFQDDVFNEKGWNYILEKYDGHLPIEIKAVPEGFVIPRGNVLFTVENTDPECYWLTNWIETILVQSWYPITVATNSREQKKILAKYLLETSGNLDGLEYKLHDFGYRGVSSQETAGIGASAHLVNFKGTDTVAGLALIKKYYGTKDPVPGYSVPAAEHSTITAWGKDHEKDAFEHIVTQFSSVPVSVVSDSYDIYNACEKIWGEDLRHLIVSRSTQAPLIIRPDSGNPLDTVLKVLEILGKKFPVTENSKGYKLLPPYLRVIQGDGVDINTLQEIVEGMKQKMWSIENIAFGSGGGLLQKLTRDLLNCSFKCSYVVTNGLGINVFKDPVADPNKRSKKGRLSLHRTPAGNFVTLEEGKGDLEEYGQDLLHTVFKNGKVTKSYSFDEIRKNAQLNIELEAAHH
metric: inhibition at 0.1 µM (%)

Below, 4 compounds whose answers are already recorded.
>>> df
                                   compound                   experimental_system  numeric_value
0  NC(=O)c1cc(F)ccc1OCc1cccc(C(=O)N2CCN(S(=O)(=O)c3ccc(NC(=O)NCc4cccnc4)cc3)CC2)c1 [DDY09]  NAMPT (Homo sapiens, UniProt P43490)             86
1  NC(=O)c1cccc2[nH]c(C(=O)N3CCN(S(=O)(=O)c4ccc(NC(=S)NCc5cccnc5)cc4)CC3)nc12 [DDY10]  NAMPT (Homo sapiens, UniProt P43490)              7
2  O=C(c1cc(Cc2n[nH]c(=O)c3ccccc23)ccc1F)N1CCN(S(=O)(=O)c2ccc(NC(=S)NCc3cccnc3)cc2)CC1 [DDY01]  NAMPT (Homo sapiens, UniProt P43490)             83
3  NC(=O)c1ccccc1OCc1cccc(C(=O)N2CCN(S(=O)(=O)c3ccc(NC(=O)NCc4cccnc4)cc3)CC2)c1 [DDY08]  NAMPT (Homo sapiens, UniProt P43490)             80

a. NC(=O)c1cc(F)ccc1OCc1ccc(F)c(C(=O)N2CCN(S(=O)(=O)c3ccc(NC(=O)NCc4cccnc4)cc3)CC2)c1 [DDY07]
b. NC(=O)c1ccccc1OCc1ccc(F)c(C(=O)N2CCN(S(=O)(=O)Cc3ccc(NC(=O)NCc4cccnc4)cc3)CC2)c1 [DDY06]
Could you tell me which of a and b has the lower inhibition at 0.1 µM reading? Please reply using the label of the selected record. b
(b: 48%, a: 84%)

----------
system: MDA-MB-468; test: MTT cell viability assay, MDA-MB-468; format: cell-based; details: Homo sapiens, 72 h, mean ± SEM, read-out: Cytotoxicity IC50 MDA-MB-468
Items are presented alongside their recorded pIC50.
In plain terms, pIC50 is the concentration in mol/L turned into minus its base-10 logarithm.

Below, 3 molecules whose answers are already recorded.
>>> print(df.to_string())
                                   molecule  numeric_value
0  O=C(/C=C/c1cccnc1)NCCCCC1CCN(C(=O)c2ccccc2)CC1 [FK866, reference compound]           5.40
1  NC(=O)c1cccc2[nH]c(C(=O)N3CCN(S(=O)(=O)c4ccc(NC(=O)NCc5cccnc5)cc4)CC3)nc12           4.91
2  NC(=O)c1cccc2[nH]c(C(=O)N3CCN(S(=O)(=O)c4ccc(NC(=S)NCc5cccnc5)cc4)CC3)nc12           5.17

Requested read-out: pIC50. Entry: O=C(c1cc(Cc2n[nH]c(=O)c3ccccc23)ccc1F)N1CCN(S(=O)(=O)c2ccc(NC(=S)NCc3cccnc3)cc2)CC1 5.29

Requested read-out: pIC50. Entry: NC(=O)c1cc(F)ccc1OCc1ccc(F)c(C(=O)N2CCN(S(=O)(=O)c3ccc(NC(=O)NCc4cccnc4)cc3)CC2)c1 5.13

Requested read-out: pIC50. Entry: O=C(NCc1cccnc1)Nc1ccc(S(=O)(=O)N2CCN(C(=O)CCc3nc4ccccc4c(=O)[nH]3)CC2)cc1 5.09

Requested read-out: pIC50. Entry: NC(=O)c1ccccc1OCc1cccc(C(=O)N2CCN(S(=O)(=O)c3ccc(NC(=O)NCc4cccnc4)cc3)CC2)c1 4.89
